Each entry below lists one item and its recorded pIC50 value.
# measurement-target: CHK1 (Homo sapiens)
# procedure-details: CHK1 kinase function inhibition (DELFIA assay, phosphorylation of CDC25C peptide)
# measurement-setup: CHK1 1 nM, ATP 30 μM, 30 minutes at room temperature
pIC50: −log10 of the molar value.

1) N#Cc1cnc(Nc2cc3cc(Cl)ccc3cn2)cn1 = 5.00 to 6.00

Exercise: Look up pIC50 of CNc1cccc2cc(Nc3cnc(C#N)cn3)ncc12 and report it.
Key: ≥ 6.00

Exercise: Look up pIC50 of N#Cc1ncc(Nc2cc3cccc(NCCO)c3cn2)nc1O[C@@H]1CCNC1 and report it.
Key: ≥ 6.00

Exercise: Look up pIC50 of N#Cc1ncc(Nc2cc3cccc(NCCCO)c3cn2)nc1O[C@@H]1CCNC1 and report it.
Key: ≥ 6.00

Exercise: Look up pIC50 of COCCC(=O)Nc1cccc2cc(Nc3cnc(C#N)cn3)ncc12 and report it.
Key: 5.00 to 6.00

###

# measurement-target: CHK1 (Homo sapiens, UniProt O14757)
# Sequence (O14757 1-476): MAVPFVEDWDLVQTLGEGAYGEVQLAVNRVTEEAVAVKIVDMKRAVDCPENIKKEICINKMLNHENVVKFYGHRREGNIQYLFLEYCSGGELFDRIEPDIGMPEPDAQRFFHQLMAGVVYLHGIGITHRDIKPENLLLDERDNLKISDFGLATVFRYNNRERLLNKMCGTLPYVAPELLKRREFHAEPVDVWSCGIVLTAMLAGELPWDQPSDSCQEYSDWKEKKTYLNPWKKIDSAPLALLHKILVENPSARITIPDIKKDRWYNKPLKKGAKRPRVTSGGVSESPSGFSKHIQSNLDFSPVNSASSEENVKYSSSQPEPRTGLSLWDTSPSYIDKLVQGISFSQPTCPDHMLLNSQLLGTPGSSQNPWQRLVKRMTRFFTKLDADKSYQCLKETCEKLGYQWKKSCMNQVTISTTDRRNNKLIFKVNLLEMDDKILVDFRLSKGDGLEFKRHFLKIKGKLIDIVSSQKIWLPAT
# procedure-details: CHK1 kinase function inhibition (DELFIA assay, phosphorylation of CDC25C peptide)
# measurement-setup: CHK1 1 nM, ATP 30 μM, 30 minutes at room temperature
result-type: IC50

Exercise: # lookup: CHK1 (Homo sapiens, UniProt O14757) IC50, key = Cn1cnc2cnc(Nc3cnc(C#N)c(OCC4CCNCC4)n3)cc21
Key: ≤ 1 µM

###

# System: HT29 colon carcinoma cells
# procedure-details: Cytotoxicity assay (SRB)
# Assay type: cell-based
# measurement-setup: Homo sapiens, HT-29, 96 h, read-out: SRB IC50 (concentration required to inhibit growth by 50%)
pIC50: −log10 of the molar value.
result-type: pIC50

Example entries begin here.
1) N#Cc1ncc(Nc2cc3cccc(Cl)c3cn2)nc1OC1CCCNC1 (stereo not shown) = ≥ 5.00
2) N#Cc1ncc(Nc2cc3ccccc3cn2)nc1OCC1CCNCC1 = ≥ 5.00
3) C[C@H](CN(C)C)Oc1nc(Nc2cc3cccc(Cl)c3cn2)cnc1C#N = ≥ 5.00

Exercise: Look up pIC50 of CC(CN(C)C)Oc1nc(Nc2cc3cccc(Cl)c3cn2)cnc1C#N (stereo not shown) and report it.
Key: ≥ 5.00

Exercise: Look up pIC50 of N#Cc1ncc(Nc2cc3ccccc3cn2)nc1OC1CCCNC1 (stereo not shown) and report it.
Key: ≥ 5.00

Exercise: Look up pIC50 of C[C@H](CN(C)C)Oc1nc(Nc2cc3ccccc3cn2)cnc1C#N and report it.
Key: ≥ 5.00

Exercise: Look up pIC50 of N#Cc1ncc(Nc2cc3cccc(Cl)c3cn2)nc1OCC1CCNCC1 and report it.
Key: ≥ 5.00

###

# measurement-target: UniProt O14757
# procedure-details: CHK1 kinase function inhibition (DELFIA assay, phosphorylation of CDC25C peptide)
# measurement-setup: CHK1 1 nM, ATP 30 μM, 30 minutes at room temperature
result-type: IC50

1. N#Cc1cnc(Nc2cc3cccc(-c4cc[nH]n4)c3cn2)cn1 [AA-019] = 1000 to 10000 nM
2. COc1nc(Nc2cc3cccc(NCCN4CCOCC4)c3cn2)cnc1C#N [AA-030] = ≤ 1000 nM
3. CC(CN(C)C)Oc1nc(Nc2cc3[nH]cnc3cn2)cnc1C#N (centres unmarked) [BB-024] = ≤ 1000 nM
4. CN1CCC(COc2nc(Nc3cc4cccc(Cl)c4cn3)cnc2C#N)CC1 [AA-014] = ≤ 1000 nM

Now turn to the next compound.
Exercise: Look up IC50 of COc1cccc2cc(Nc3cnc(C#N)cn3)ncc12 [AA-021] and report it.
Key: 1000 to 10000 nM

###

Each entry below lists one item and its recorded IC50 value.
# measurement-target: UniProtKB O14757
# procedure-details: CHK1 kinase function inhibition (DELFIA assay, phosphorylation of CDC25C peptide)
# measurement-setup: CHK1 1 nM, ATP 30 μM, 30 minutes at room temperature

Example entries begin here.
1) COCCCNc1cccc2cc(Nc3cnc(C#N)c(O[C@H](C)CN(C)C)n3)ncc12 = ≤ 1000 nM
2) N#Cc1cnc(Nc2cc3cc[nH]c3cn2)cn1 = 1000 to 10000 nM
3) COCCCNc1cccc2cc(Nc3cnc(C#N)cn3)ncc12 = ≤ 1000 nM

Exercise: Look up IC50 of N#Cc1cnc(Nc2cc3c(cn2)ncn3[C@@H]2CCCNC2)cn1 and report it.
Key: 1000 to 10000 nM

###

# measurement-target: UniProtKB O14757
# procedure-details: CHK1 kinase function inhibition (DELFIA assay, phosphorylation of CDC25C peptide)
# measurement-setup: CHK1 1 nM, ATP 30 μM, 30 minutes at room temperature
result-type: IC50

Example entries begin here.
1. CCOC(=O)COc1nc(Nc2cc3ccccc3cn2)cnc1C#N = 1000 to 10000 nM
2. N#Cc1cnc(Nc2cc3c(Br)ccc(Cl)c3cn2)cn1 = 1000 to 10000 nM
3. N#Cc1ncc(Nc2cc3cccc(Br)c3cn2)nc1OC[C@H]1CNCCO1 = ≤ 1000 nM
4. N#Cc1cnc(Nc2cc3c(cn2)ncn3CCN)cn1 = 1000 to 10000 nM
5. CN1CCCC(COc2nc(Nc3cc4[nH]cnc4cn3)cnc2C#N)C1 (centres unmarked) = ≤ 1000 nM
6. N#Cc1cnc(Nc2cc3c(cn2)ncn3[C@H]2CCCNC2)cn1 = ≤ 1000 nM
7. N#Cc1cnc(Nc2cc3[nH]c(C4CC4)nc3cn2)cn1 = 1000 to 10000 nM
8. COCCNC(=O)c1cccc2cc(Nc3cnc(C#N)c(OC(C)CN(C)C)n3)ncc12 (centres unmarked) = 1000 to 10000 nM

Exercise: # lookup: UniProtKB O14757 IC50, key = N#Cc1ncc(Nc2cc3cccc(NCCO)c3cn2)nc1OCC1CC1
Key: ≤ 1000 nM

Exercise: # lookup: UniProtKB O14757 IC50, key = N#Cc1ncc(Nc2cc3cccc(NCCO)c3cn2)nc1OCC1CCOC1 (centres unmarked)
Key: 1000 to 10000 nM

Exercise: # lookup: UniProtKB O14757 IC50, key = Cc1cccc2cc(Nc3cnc(C#N)c(O[C@H](C)CN(C)C)n3)ncc12
Key: ≤ 1000 nM

Exercise: # lookup: UniProtKB O14757 IC50, key = c1nc2cnc(Nc3cncc(OCC4CCNCC4)n3)cc2[nH]1
Key: 1000 to 10000 nM

Exercise: # lookup: UniProtKB O14757 IC50, key = Cc1cccc2cc(Nc3cnc(C#N)cn3)ncc12
Key: 1000 to 10000 nM

Exercise: # lookup: UniProtKB O14757 IC50, key = COCCNc1cccc2cc(Nc3cnc(C#N)c(O[C@@H]4CCNC4)n3)ncc12
Key: ≤ 1000 nM

Exercise: # lookup: UniProtKB O14757 IC50, key = C[C@H](CN(C)C)Oc1nc(Nc2cc3cccc(NCCCO)c3cn2)cnc1C#N
Key: ≤ 1000 nM

Exercise: # lookup: UniProtKB O14757 IC50, key = N#Cc1ncc(Nc2cc3ccccc3cn2)nc1OCC(=O)O
Key: 1000 to 10000 nM

###

# measurement-target: CHK1 (Homo sapiens, UniProt O14757)
# Sequence (O14757 1-476): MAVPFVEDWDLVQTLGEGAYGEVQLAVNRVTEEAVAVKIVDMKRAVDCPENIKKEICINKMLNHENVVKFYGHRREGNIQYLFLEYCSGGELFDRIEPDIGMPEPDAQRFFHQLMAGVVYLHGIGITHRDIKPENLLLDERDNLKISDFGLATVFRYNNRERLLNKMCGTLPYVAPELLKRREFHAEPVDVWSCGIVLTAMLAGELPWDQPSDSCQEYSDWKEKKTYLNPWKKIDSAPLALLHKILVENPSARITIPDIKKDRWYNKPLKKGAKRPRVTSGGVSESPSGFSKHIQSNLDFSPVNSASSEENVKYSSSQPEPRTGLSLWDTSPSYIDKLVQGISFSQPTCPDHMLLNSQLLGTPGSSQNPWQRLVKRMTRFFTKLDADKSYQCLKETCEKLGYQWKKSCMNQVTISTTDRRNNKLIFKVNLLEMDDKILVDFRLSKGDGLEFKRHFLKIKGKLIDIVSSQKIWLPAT
# procedure-details: CHK1 kinase function inhibition (DELFIA assay, phosphorylation of CDC25C peptide)
# measurement-setup: CHK1 1 nM, ATP 30 μM, 30 minutes at room temperature
pIC50: −log10 of the molar value.
Each entry below lists one item and its recorded pIC50 value.

Example entries begin here.
1) Cc1cccc2cc(Nc3cnc(C#N)c(O[C@@H]4CCNC4)n3)ncc12 = ≥ 6.00
2) Clc1cccc2cc(Nc3cncc(OCC4CCNCC4)n3)ncc12 = 5.00 to 6.00
3) N#Cc1cnc(Nc2cc3cccc(Br)c3cn2)cn1 = 5.00 to 6.00
4) N#Cc1cnc(Nc2cc3cccc(NCCCO)c3cn2)cn1 = ≥ 6.00
5) CC(CN(C)C)Oc1nc(Nc2cc3cccc(NCCCO)c3cn2)cnc1C#N (stereo not drawn) = ≥ 6.00
6) Cc1cccc2cc(Nc3cnc(C#N)c(OC(C)CN(C)C)n3)ncc12 (stereo not drawn) = ≥ 6.00

Exercise: # lookup: CHK1 (Homo sapiens, UniProt O14757) pIC50, key = COc1nc(Nc2cc3ccccc3cn2)cnc1C#N
Key: ≥ 6.00

Exercise: # lookup: CHK1 (Homo sapiens, UniProt O14757) pIC50, key = N#Cc1ncc(Nc2cc3cccc(Br)c3cn2)nc1O[C@@H]1CCNC1
Key: ≥ 6.00

Exercise: # lookup: CHK1 (Homo sapiens, UniProt O14757) pIC50, key = N#Cc1cnc(Nc2cc3c(cn2)ncn3CC2CCCNC2)cn1 (stereo not drawn)
Key: 5.00 to 6.00

Exercise: # lookup: CHK1 (Homo sapiens, UniProt O14757) pIC50, key = N#Cc1ncc(Nc2cc3ccccc3cn2)nc1OC[C@H]1CNCCO1
Key: ≥ 6.00

Exercise: # lookup: CHK1 (Homo sapiens, UniProt O14757) pIC50, key = N#Cc1cnc(Nc2cc3c(cn2)ncn3C2CCNCC2)cn1
Key: 5.00 to 6.00

Exercise: # lookup: CHK1 (Homo sapiens, UniProt O14757) pIC50, key = CC(=O)Nc1cccc2cc(Nc3cnc(C#N)c(O[C@H](C)CN(C)C)n3)ncc12
Key: ≥ 6.00
